# Test system: OVCAR-8 ovarian
# measurement-description: NCI-60 one-dose screen, 48 h
# condition-parameters: 10 µM unless noted
# Method: Growth inhibition of the OVCAR-8 human tumor cell line is measured as a screen for anti-cancer activity. Cells are grown in 96 well plates and exposed to the test compound for 48 hours. Compounds are tested at a single concentration, which is 10^-5 M for most compounds. The reported endpoint is percent growth (GI% or GIPRCNT), where numbers from 0 - 100% represent growth inhibition, and numbers from -100% - 0 represent cell death. For example, a value of 40 represents 60% growth inhibition. […]
About 83,000 compounds went through this panel and 20% of them were active in at least one assay; those are over-represented in the sample as a whole. Activity calls are given as the source filed them. The calls were made as follows: active = growth percent below 10; inactive = the rest.
Hi! Could you answer with just one of these? t = active, f = inactive

Example entries begin here.
{"compound": "CC(C)(C)c1ccc(C(=O)Nc2sc3c(c2C(N)=O)CCC(=O)C3)cc1", "experimental-target": "OVCAR-8 ovarian", "label-value": "t"}
{"compound": "Cc1cc(Cc2cc(C)cc(C(C)(C)C)c2O)c(O)c(C(C)(C)C)c1", "experimental-target": "OVCAR-8 ovarian", "label-value": "f"}
{"compound": "COc1cc2oc(-c3cccc(C(=O)Nc4ccc(C)cc4)c3)cc(=O)c2c(OC)c1OC", "experimental-target": "OVCAR-8 ovarian", "label-value": "f"}
{"compound": "O=C1/C(=C/c2ccccc2[N+](=O)[O-])COc2ccc(O)c(O)c21", "experimental-target": "OVCAR-8 ovarian", "label-value": "f"}

Field: next compound
Enquiry: Please share the test call associated with C=C(C)[C@@H]1CC[C@]2(CNCCO)CC[C@]3(C)[C@H](CC[C@@H]4[C@@]5(C)CCC(N)[C@@](C)(CO)[C@@H]5CC[C@]43C)[C@@H]12 (some centres undefined) .
Return: f

Hey, just so you know, these numbers are from PubChem BioAssay (NCI).
